Molecular target: DCN1 (Homo sapiens (Human), UniProt Q96GG9)
Sequence (Q96GG9 58-259): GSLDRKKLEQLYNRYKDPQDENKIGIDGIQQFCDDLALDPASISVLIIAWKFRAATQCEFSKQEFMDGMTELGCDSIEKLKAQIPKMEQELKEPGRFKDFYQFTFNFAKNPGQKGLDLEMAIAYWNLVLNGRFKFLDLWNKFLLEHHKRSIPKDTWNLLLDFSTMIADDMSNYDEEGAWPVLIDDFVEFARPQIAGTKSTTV
Assay: Competitive FP binding assay
Settings: read-out: Binding affinity to DCN1 (IC50 (nM))
Square brackets hold non-standard residues; d marks the D form. Peptide text beside a SMILES is read from it. * marks the point of attachment. Ala(6-iPr-benzothiazol-2-yl) = CC(C)c1ccc2nc(C[C@H](N)C(=O)O)sc2c1; Chg = N[C@H](C(=O)O)C1CCCCC1; Propionyl = CCC(=O)*
Observed property: log10 of IC50 (log10 of the value in nM)

Compound | Observed property | Reported measurement
CCC(=O)N[C@@H](Cc1nc2ccc(C(C)C)cc2s1)C(=O)N[C@H](COCCN1CCOCC1)C1CCCCC1 | log10 of IC50 | 2.14
CCC(=O)N[C@@H](Cc1ccc2ccccc2c1)C(=O)N[C@H](C(=O)N[C@@H](CCCCN)C(=O)NC(c1ccc(F)cc1)c1ccc(F)cc1)[C@@H](C)CC | log10 of IC50 | 2.51
CCC(=O)N[C@@H](Cc1nc2ccc(Cl)cc2o1)C(=O)N[C@H](C(=O)N[C@@H](CCCCN)C(=O)N[C@@H]1CCOc2ccccc21)C1CCOCC1 | log10 of IC50 | 2.08
CCC(=O)N[C@H](CNC(=O)c1ccccc1)Cc1nc2ccc(Cl)cc2s1 | log10 of IC50 | 3.26
CCC(=O)N[C@@H](Cc1nc2ccc(C(F)(F)F)cc2o1)C(=O)N[C@H](C(=O)N[C@@H](CCCCN)C(=O)N[C@@H]1CCOc2ccccc21)C1CCOCC1 | log10 of IC50 | 2.01
CCC(=O)N[C@@H](Cc1nc2ccc(C(C)C)cc2s1)C(=O)N[C@H](C(=O)N[C@@H](CCCCN)C(=O)N[C@@H](CC(C)C)C(N)=O)C1CCCCC1 [Example 286] (Propionyl-[Ala(6-iPr-benzothiazol-2-yl)][Chg]KL-NH2) | log10 of IC50 | 1.77
CCC(=O)N[C@@H](Cc1nc(C)c(-c2cccc(F)c2)s1)C(=O)N[C@H](CN)Cc1ccccc1 | log10 of IC50 | 3.11
CCC(=O)N[C@@H](Cc1ccc2ccccc2c1)C(=O)N[C@H](C(=O)N[C@@H](CCCCN)C(=O)N[C@H](CN)c1ccccc1)C1CCCC1 | log10 of IC50 | 3.30
CCC(=O)N[C@@H](Cc1nc2ccc(Cl)cc2s1)C(=O)N[C@H](C(=O)N[C@@H](CCCCN)C(=O)N[C@@H]1CCOc2ccccc21)C1CCCC1 | log10 of IC50 | 2.01
CCC(=O)N[C@@H](Cc1nc2ccc(Cl)cc2s1)C(=O)N[C@H](C(=O)N[C@@H](CCCCN)C(=O)NC(c1ccccc1)c1ccccc1)C1CCCC1 | log10 of IC50 | 2.29
CCC(=O)N[C@@H](Cc1nc2ccc(Cl)cc2s1)C(=O)N[C@H](CN)C1CCCC1 | log10 of IC50 | 2.75
CCC(=O)N[C@@H](Cc1nc2ccc(C)cc2s1)C(=O)N[C@@H](Cc1cccnc1)C(=O)N[C@@H](CCCCN)C(=O)N[C@@H]1CCOc2ccccc21 | log10 of IC50 | 2.22
CCC(=O)N[C@@H](Cc1nc2ccc(C)cc2s1)C(=O)N[C@H](C(=O)N[C@@H](CCCCN(C)C)C(=O)N[C@@H]1CCOc2ccccc21)C1CCOCC1 | log10 of IC50 | 2.19
CCC(=O)N[C@H](CNC(=O)[C@@H]1CCCCN1)Cc1nc2ccc(C(C)C)cc2s1 | log10 of IC50 | 3.49
CCC(=O)N[C@@H](Cc1nc2ccc(Cl)cc2s1)C(=O)N[C@H](C(=O)N[C@@H](CCCCN)C(=O)N[C@@H]1CCOc2ccccc21)C1CCOCC1 | log10 of IC50 | 1.69
CCC(=O)N[C@@H](Cc1nc2ccccc2o1)C(=O)N[C@H](C(=O)N[C@@H](CCCCN)C(=O)NC(c1ccccc1)c1ccccc1)[C@@H](C)CC | log10 of IC50 | 2.99
CC(C)c1ccc2nc(C[C@H](NC(=O)C3CC3)C(=O)N[C@H](CN)C3CCCCC3)sc2c1 | log10 of IC50 | 2.19
CCC(=O)N[C@@H](Cc1nc2ccc(C)cc2s1)C(=O)N[C@H](CN)[C@@H](C)CC | log10 of IC50 | 2.69
CC[C@H](C)[C@H](NC(=O)[C@H](Cc1nc2ccc(Cl)cc2s1)NC(C)=O)C(=O)N[C@@H](CCCCN)C(=O)N[C@@H](CC(C)C)C(N)=O | log10 of IC50 | 2.06
CCC(=O)N[C@@H](Cc1nc2ccc(C(C)C)cc2s1)C(=O)N[C@H](CNC(=O)NC1CCNCC1)C1CCCCC1 | log10 of IC50 | 1.72
CCC(=O)N[C@@H](Cc1nc2ccc(C(C)C)cc2s1)C(=O)N[C@H](CNC(=O)CN1CCOCC1)C1CCCCC1 | log10 of IC50 | 1.85
CCC(=O)N[C@@H](Cc1nc2ccc(C(C)C)cc2s1)C(=O)N[C@H](CNC(=O)C1CNC1)C1CCCCC1 | log10 of IC50 | 1.82
CCC(=O)N[C@@H](Cc1nc(C)c(-c2ccc(Cl)cc2)s1)C(=O)N[C@H](CN)Cc1ccccc1 | log10 of IC50 | 3.11
CCC(=O)N[C@@H](Cc1nc2ccc(Cl)cc2s1)C(=O)N[C@H](CN)CC1CCCCC1 | log10 of IC50 | 2.50
CC[C@H](C)[C@H](NC(=O)[C@H](Cc1nc2cc(Cl)ccc2s1)NC(C)=O)C(=O)N[C@@H](CCCCN)C(=O)N[C@@H](CC(C)C)C(N)=O | log10 of IC50 | 0.96
